Assay: antivirals protecting cells from dengue CPE – CPE readout, HTS (AID 540333)
Details: Dengue virus CPE inhibition in host cells, at 20 µM
Hit rate of the full screen: of about 10,000 compounds, about 320 (3.2%) were called active. Cut-off read from the data, not from the text of the source: active = CPE inhibition mostly above about 9.1% (no sharp cut-off); inactive = mostly below about 7.2%. The sample holds actives, similar compounds and a random draw of the others, so the mix is not that of the screen.
Your answer must be one of the following: 1 for active, 0 for inactive

The examples below pair each entry with its known result.
compound: Cc1cccc(OCCC(=O)Nc2ccc(C)c(S(=O)(=O)N3CCCCC3)c2)c1
assigned.class: 1
--
compound: COc1ccc(NC(=O)CCCC2CCCCC2)cc1S(=O)(=O)N1CCCCC1
assigned.class: 0
--
compound: O=C(N/N=C/c1cccc(O)c1)c1ccc(COc2ccccc2Br)cc1
assigned.class: 0

(Q) Hi team, can someone confirm the assay call for CNC(=S)N(CCc1ccc(OC)c(OC)c1)Cc1cc2c(C)cc(C)cc2[nH]c1=O ?
(A) 0

(Q) Hi team, can someone confirm the assay call for CCN(Cc1ccccc1)C(=O)C1CCN(CC2CC=CCC2)CC1 (stereo not given) ?
(A) 0
